MEASURED_ON: AII receptors (cell surface membrane fraction, guinea pig adrenal gland) (Cavia porcellus, UniProt Q9WV26)
Sequence (Q9WV26 1-359): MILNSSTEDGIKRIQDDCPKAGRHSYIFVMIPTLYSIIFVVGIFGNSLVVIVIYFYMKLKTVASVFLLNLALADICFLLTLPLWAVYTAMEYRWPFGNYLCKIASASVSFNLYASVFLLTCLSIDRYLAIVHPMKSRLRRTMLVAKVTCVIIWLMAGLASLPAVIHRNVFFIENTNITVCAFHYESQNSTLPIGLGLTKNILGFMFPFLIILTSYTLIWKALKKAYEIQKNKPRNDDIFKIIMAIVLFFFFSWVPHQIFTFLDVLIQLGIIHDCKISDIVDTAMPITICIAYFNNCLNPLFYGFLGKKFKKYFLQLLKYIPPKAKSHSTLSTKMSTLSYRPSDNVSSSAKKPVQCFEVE
READOUT_TYPE: IC50 (µM)
One number for each entry, in µM.

*Q* Could you tell me which IC50 is on file for Cc1cc(OC(C)c2ccc(-c3ccccc3-c3nnn[nH]3)cc2)c2ccccc2n1.Cl (stereo not shown) [Example 1, hydrochloride] ?
*A* 0.04
